test-system: T1, sRAGE (V-C1-C2) lot LP08062 (human, UniProt Q15109 23-331, limits assumed)
T1 construct: domain: V-C1-C2; also called Human RAGE; LP08062 (Rage)
T1 sequence (Q15109 23-331 limits assumed): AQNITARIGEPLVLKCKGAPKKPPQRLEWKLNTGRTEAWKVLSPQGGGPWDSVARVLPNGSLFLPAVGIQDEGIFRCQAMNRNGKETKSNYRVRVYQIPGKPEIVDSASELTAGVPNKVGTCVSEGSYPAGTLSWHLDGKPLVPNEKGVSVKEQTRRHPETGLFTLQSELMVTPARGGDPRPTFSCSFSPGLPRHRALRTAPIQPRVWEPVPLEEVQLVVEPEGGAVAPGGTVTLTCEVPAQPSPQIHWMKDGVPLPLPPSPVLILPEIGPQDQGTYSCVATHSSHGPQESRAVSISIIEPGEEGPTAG
protocol: SPR (Biacore), mAb captured on anti-mouse Fc, sRAGE 15 nM, Langmuir 1:1
pKd: −log10 of the molar value.

binder | pKd
140 RAGE-1 (antibody, V domains shown, Anti-RAGE monoclonal antibody from a hybridoma, captured by anti-mouse Fc; also called Protein 140 RAGE-1) VH: QVQLQQPGAELVKPGASVRLSCKASGYTFTSYWMHWVKQRPGQGLEWIGEINPSNGRTNYNEKFKSKATLTVDKSSSTAYMQLSSLTSEDSAVYYCARDGLGYRPIAMDYWGQGTSVTVSS VL: QIVLTQSPAIMSASPGEKVTISCSASSSVSYMYWYQQKPGSSPKPWIYRTSNLASGVPARFSGSGSGTSYSLTISSMEAEDAATYYCQQYHSYPPMYTFGGGTKLEIK | 9.52
56 RAGE-1 (antibody, V domains shown, Anti-RAGE monoclonal antibody from a hybridoma, captured by anti-mouse Fc; also called LP08103; Protein 56 RAGE-1) VH: QVQLQQSGPELVKPGASVRISCKASGYTFTSYFIHWVKQRPGQGLEWIGWIYPGNVNTKYNEKFKDKATLTADKSSSTAYMQLSNLTSEDSAVYFCVRGQLGDYWGQGITLTVSS VL: DIVMTQSQKFMSTSVGDRVSVTCKASQNVGINVAWYQQKPGQSPKALIYSASYRYSGVPDRFTGSGSGTDFTLIISNVQSEDLAEYFCQQYNNYPRTFGGGTKLEIK | 8.73
183 RAGE-1 (antibody, V domains shown, Anti-RAGE monoclonal antibody from a hybridoma, captured by anti-mouse Fc; also called Protein 183 RAGE-1) VH: EVQLQQSGTVLARPGASVKMSCKASGYSFTSYWMHWVKQRPGQGLEWIGAIFPGNSDTTYNQKFKGKAKLTAVTSASTAYMELSSLTNEDSAVYYCTGLRRGFPYWGQGTLVTVSV VL: NIVMTQSPKSMSMSVGERVTLSCKASENVGTYVSWYQQKPEQSPKLLIYGASNRYTGVPDRFTGSGSATDFTLTISSVQAEDLADYHCGQSYSYPYTFGGGTKLEIK | 8.76
316 RAGE-1 (antibody, V domains shown, Anti-RAGE monoclonal antibody from a hybridoma, captured by anti-mouse Fc; also called Protein 316 RAGE-1) VH: QVQLQQSGPELVRPGASVKMSCKASGYTFTSYWMHWVKQRPGQGLEWIGMIDPSNSETRLNQKFKDKATLNVDKSSNTAYMQLSSLTSEDSAVYYCARNFYGSSLRVWGAGTTVTVSS VL: DIVLTQSPASLAVSLGQRATISCRASKSVSISGYSYLHWNQQKPGQSPKLLIYLASNLESGVPARFSGSGSGTDFTLNIHPVEEEDAATYYCQHSRELPYTFGGGTKLEIK | 9.50
499 RAGE-1 (antibody, V domains shown, Anti-RAGE monoclonal antibody from a hybridoma, captured by anti-mouse Fc; also called Protein 499 RAGE-1) VH: EVQLQQSGTVLARPGASVKMSCKASGYTFTSYWMHWVKQRPGQGLEWIGAIYPGDSDTYYNQKFKGKAKLTAVTSTSTAYMELSSLTNEDSAVYYCTRNWDYWGQGTTLTVSS VL: DIVMTQSHKFMSTSVGDRVSITCKASQDVSTAVAWYQQKPGQSPKLLIYSASYRYTGVPDRFTGSGSGTDFTFTISSVQAEDLAVYYCQQHYNTPRTFGGGTKLEIK | 9.10
